- Test system: LOX IMVI melanoma
- Test details: NCI tumour cell line growth inhibition, 48 h
Measurement label: TGI

In the examples that follow, each entry is paired with its recorded TGI.
Compound	TGI
CC(C)CC(=O)OC[n+]1cccc(-c2c(COC(=O)NC(C)C)c(COC(=O)NC(C)C)c3n2CCC3)c1	> 100 µM
O=c1c2cc([N+](=O)[O-])cnc2sn1-c1ccc(Oc2ccccc2)cc1	> 100 µM
CCN(CC)/C(=C\Cl)Nc1ccccn1	> 100 µM
Cc1nc(Cl)c(C)c(Cl)n1	> 100 µM
c1ccc2c(OCC3CO3)ccc(OCC3CO3)c2c1 (centres undefined)	2.08 µM
O=C(CSc1nnc(-c2ccc(N=Cc3ccc(Cl)cc3)cc2)o1)Nc1ccccc1	36.4 µM

Give TGI for each of the items listed below.
1. CCC(C)C(NC(=O)C(CCCCN)NC(=O)C(NC(=O)C(CCC(N)=O)NC(=O)C(CCCNC(=N)N)NC(C)=O)C(C)CC)C(=O)NC(Cc1c[nH]c2ccccc12)C(=O)NC(Cc1ccccc1)C(=O)NC(CCC(N)=O)C(=O)NC(CC(N)=O)C(=O)NC(CCCNC(=N)N)C(=O)NC(CCCNC(=N)N)C(=O)NC(CCSC)C(=O)NC(CCCCN)C(=O)NC(Cc1c[nH]c2ccccc12)C(=O)NC(CCCCN)C(=O)NC(CCCCN)C(N)=O (centres undefined)
2. CN1CCN(Cc2ccc(NC(=O)c3[nH]ncc3Nc3ccnc4ccsc34)cc2)CC1
3. O=C1CN2CCC1C/C2=C\c1ccnc2c(Cl)cccc12 (centres undefined)

Solution:
["> 50 µM", "4.59 µM", "> 100 µM"]

====

- System: HT29 colon
- Test details: NCI tumour cell line growth inhibition, 48 h
Binary call on TGI: criterion met from 40 µM upward, criterion not met beneath that.

Problem: Evaluate CCC/C(Cl)=N\OC(=O)Nc1ccc(Br)cc1 : TGI at minimum 40 µM?
Solution: criterion met

Problem: Evaluate COc1cc(C(=O)O)ccc1NC(=O)[C@@H]1N[C@@H](CC(C)(C)C)[C@](C#N)(c2ccc(Cl)cc2F)[C@H]1c1cccc(Cl)c1F : TGI at minimum 40 µM?
Solution: criterion not met

Problem: Evaluate C=C(CO)[C@H]1CC/C(C)=C/CC/C(C)=C/C/C=C(\C)[C@H](O)C1 : TGI at minimum 40 µM?
Solution: criterion not met

====

- Tested on: MOLT-4 leukemia
- Test details: NCI tumour cell line growth inhibition, 48 h
Measurement label: TGI

In the examples that follow, each entry is paired with its recorded TGI.
>>> print(df.to_string())
                                   molecule  measurement_label    result
0    COc1ccc(OC)c2c(=O)cc(-c3ccccc3)[nH]c12                TGI  > 100 µM
1  CN(C)Cc1cc(C(=O)/C=C/c2c(Cl)cccc2Cl)cc(CN(C)C)c1O                TGI   30.3 µM
2  COC(=O)c1cccc(C)c1C1CN=NC12Cc1c(ccc(C)c1C)C2=O (stereo unspecified)                TGI   86.7 µM
3  CC(C)(C)c1cc(N=NC(=S)NCc2ccccc2)cc(C(C)(C)C)c1O                TGI  > 100 µM

Give TGI for each of the items listed below.
1. COc1nc(C#CCCCC#N)nc(OC)n1
2. CC(C)C1=CC(=O)C(C)(C2=NC(C)(C)CO2)c2ccccc21 (stereo unspecified)

Solution:
> 100 µM
> 100 µM

====

Provide the reported TGI of each item.
- Tested on: SK-MEL-5 melanoma
- Test details: NCI tumour cell line growth inhibition, 48 h

                                   compound             system    result
0        O[C@H]1[C@H]2[C@H](O)CCCN2C[C@H]1O  SK-MEL-5 melanoma  > 100 µM
1  CO[C@@]12C[C@@H](CNC(=O)c3cc(Br)c[nH]3)O[C@@H]1NC(=O)N2  SK-MEL-5 melanoma  > 100 µM
2  C[C@]12CC[C@H]3[C@@H](CC=C4C[C@@H](O)CC[C@@]43C)[C@@H]1C/C(=C\c1cccc(OCCCn3ccnc3)c1)[C@@H]2O  SK-MEL-5 melanoma   20.4 µM

Give TGI for each of the items listed below.
1. O=C(n1[nH]c(=O)n(-c2ccc([N+](=O)[O-])cc2)c1=O)C(Cl)(Cl)Cl
2. C=CCOCCCC(=O)C(=[N+]=[N-])C(=O)OC

Solution:
> 75 µM
> 100 µM

====

Provide the reported TGI of each item.
- System: BT-549 breast
- Test details: NCI tumour cell line growth inhibition, 48 h
Numbers only, in µM.

In the examples that follow, each entry is paired with its recorded TGI.
Compound	Unit descriptor	TGI
CCN(CC)CCCC(C)N/C(c1cccc(OC)c1)=c1\c(=O)[nH]n(-c2c3ccccc3nc3ccccc23)c(=O)\c1=C(/NC(C)CCCN(CC)CC)c1cccc(OC)c1 (centres undefined)	µM	4.85
COc1nc(C#CCCCC#N)nc(OC)n1	µM	33.1
COc1cc(N)ccc1Nc1c2ccccc2nc2ccccc12	µM	32.4
Fc1ccc(Nc2ccc3cc(OCCCN4CCOCC4)ccc3n2)cc1F	µM	52.1
O=S(=O)(NCCNc1cc(-c2cn(-c3ccccc3)nc2-c2cccc(O)c2)ccn1)c1ccc(F)cc1	µM	7.68
CC1=Cc2cc3[n-]c(cc4nc(cc5[n-]c(cc1n2)c(C)c5CCC(=O)O)C(CCC(=O)O)=C4C)cc3C.[Cu+2]	µM	27.8

Give TGI for each of the items listed below.
1. N#C/C(=C\c1ccc(Cl)cc1)n1nnc2cc(F)c(F)cc21
2. Cc1nc2c(n1CCCl)C(=O)c1ccccc1C2=O

Solution:
1: 3.43; 2: 38.3

Give TGI for each of the items listed below.
1. c1ccc2c(OCC3CO3)ccc(OCC3CO3)c2c1 (centres undefined)
2. O=C(Nc1cccc(-c2nc3ccccc3[nH]2)c1)c1cccc(NC(=O)c2ccco2)c1
3. C=CCNC(NCC=C)=C(C(Cl)=C(Cl)Cl)[N+](=O)[O-]
4. Cc1ccc(-c2nc3nc(-c4ccc(Cl)cc4)nc(N4CCCNCC4)c3o2)cc1
5. CC(=O)C1=C(O)C2(O)C(=O)c3c(c(C)c4ccc(C)c(O)c4c3O)CC2C(N)C1=O (centres undefined)

Solution:
1: 18.8; 2: 3.92; 3: 83.4; 4: 3.61; 5: 13.6

Give TGI for each of the items listed below.
1. COC(=O)C1=C(C(=O)OC)C(C(=O)c2ccccc2)N2N=C(c3ccc(Cl)cc3)C=CC12 (centres undefined)
2. Cc1cc2c(cc1C)[n+](=O)c(C(=O)c1cccs1)c(C(F)(F)F)n2[O-]
3. CCN(CC)CCCN1C(=O)c2c(c(C)c3c(oc4cc(O)ccc43)c2C)C1=O
4. O=c1oc2ccccc2c(O)c1C(c1ccc2ccccc2c1)c1c(O)c2ccccc2oc1=O

Solution:
1: 8.55; 2: 2.53; 3: 29.6; 4: 60.8

Give TGI for each of the items listed below.
1. CC1=C([Se]CC(OC(=O)[C@@H](CSSC(C)(C)C)NC(=O)C(C)(C)C)C(=O)NCCCCCC(=O)OCc2ccccc2)C(=O)c2ccccc2C1=O (some centres undefined)
2. Cc1cccc(Oc2ccc(Nc3ncnc4ccc(NC(=O)CN5CCN(C)CC5)cc34)cc2Cl)c1

Solution:
[3.15, 2.81]

====

- Tested on: CCRF-CEM leukemia
- Test details: NCI tumour cell line growth inhibition, 48 h
Measurement label: TGI

In the examples that follow, each entry is paired with its recorded TGI.
                                   compound  measurement_label    result
0  Cc1ncc([N+](=O)[O-])n1CC(O)Cn1cnc([N+](=O)[O-])n1 (stereo not drawn)                TGI  > 100 µM
1  O=C(O)C(Cc1ccccc1)N1C(=O)c2ccccc2C1=O (stereo not drawn)                TGI   65.1 µM

Consider the record given below.
Problem: GET /values?readout=TGI&item= Cc1nc2c(n1CCCl)C(=O)c1ccccc1C2=O
Solution: > 100 µM

====

Provide the reported TGI of each item.
- Test system: DMS 114 small cell lung
- Test details: NCI tumour cell line growth inhibition, 48 h
Numbers only, in µM.

                                chem_smiles                   system  unit_descriptor  quantitative_readout
0  COc1ccc(/C(Cl)=C(\C=O)c2cc(OC)c(OC)c(OC)c2)cc1OC  DMS 114 small cell lung               µM                  85.9

Consider the record given below.
Problem: GET /values?readout=TGI&item= CCC[CH2][Sn]([CH2]CCC)([O]C(=O)c1cccc(F)c1F)[O][Sn]([CH2]CCC)([CH2]CCC)[O]C(=O)c1cccc(F)c1F
Solution: 0.204
